measured-target: renin (Homo sapiens)
Sequence (P00797 67-406): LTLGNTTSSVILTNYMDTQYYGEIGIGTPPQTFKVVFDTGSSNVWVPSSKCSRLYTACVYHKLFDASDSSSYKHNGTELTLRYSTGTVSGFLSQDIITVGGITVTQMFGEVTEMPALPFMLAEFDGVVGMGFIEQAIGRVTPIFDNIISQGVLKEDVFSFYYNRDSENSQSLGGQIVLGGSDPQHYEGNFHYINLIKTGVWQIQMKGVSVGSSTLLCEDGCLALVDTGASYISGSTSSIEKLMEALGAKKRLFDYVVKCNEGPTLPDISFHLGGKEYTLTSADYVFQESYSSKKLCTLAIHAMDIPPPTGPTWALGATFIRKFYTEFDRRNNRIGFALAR
test-description: renin inhibitory activity (IC50), determined as described in EP 0173481, pages 103-105
Assay type: biochemical
conditions-used: renin inhibition; values in nM
Excerpt: The determination of renin inhibitory activity of the compounds of the present invention (ICso's) are well known to one of ordinary skill in the art, as, for example, described in published European application 0173481, published 5 March 1986, pages 103-105.
This listing pairs molecules with measured IC50.
Unit nM implied. Number only.

Record excerpt, results attached:
molecule	measured-target	readout-units	IC50
CC(C)C[C@H](O)[C@H](O)[C@H](CC1CCCCC1)NC(=O)[C@H](Cc1c[nH]cn1)N(C)C(=O)[C@H](Cc1ccccc1)NC(=O)[C@@H]1CCCN1C(=O)NC(CO)(CO)CO (relative stereo) [Example 12]	renin (Homo sapiens)	nM	0.26
CC(C)C[C@H](O)[C@H](O)[C@H](CC1CCCCC1)NC(=O)[C@H](Cc1c[nH]cn1)N(C)C(=O)[C@H](Cc1ccccc1)NC(=O)[C@@H]1CCCN1C(=O)N[C@H]1C(O)O[C@H](CO)[C@@H](O)[C@@H]1O (relative stereo) [Example 13]	renin (Homo sapiens)	nM	2.4
COc1ccc(C[C@H](NC(=O)[C@@H]2CCCN2C(=O)N[C@H]2C(O)O[C@H](CO)[C@@H](O)[C@@H]2O)C(=O)N[C@@H](Cc2c[nH]cn2)C(=O)N[C@@H](CC2CCCCC2)[C@@H](O)[C@@H](O)CC(C)C)cc1 (relative stereo) [Example 15]	renin (Homo sapiens)	nM	2.3

Next molecule, please.
Complete the entry with IC50 for COc1ccc(C[C@H](NC(=O)[C@@H]2CCCN2C(=O)NC(CO)(CO)CO)C(=O)N[C@@H](Cc2c[nH]cn2)C(=O)N[C@@H](CC2CCCCC2)[C@@H](O)[C@@H](O)CC(C)C)cc1 [Example 14]
0.21
